Please respond with reported log10(IC50) for every item in the list.
Tested on: MDA-MB-231
assayOverview: MTT cancer cell proliferation assay, MDA-MB-231
Type: cell-based, human
assayConditions: Homo sapiens, MDA-MB-231, read-out: IC50 (μM) MDA-MB-231
Scale: decimal log of IC50, IC50 in µM.

Check out these entries, answers already filled in.
INSERT INTO assay_data (compound, propertyname, observedresult) VALUES
  ('C=C1C(=O)[C@]23[C@H](O)[C@H]1CC[C@H]2[C@@]12COC3(O)[C@@H](O)[C@@H]1C(C)(C)CC1=C2O[C@]2(CC1)CC(C)(C)[C@H]1[C@H](O)[C@]3(O)OC[C@]1(C2=O)[C@@H]1CC[C@H]2C(=C)C(=O)[C@]13[C@@H]2O', 'log10(IC50)', 0.98),
  ('C=C1C(=O)[C@]23[C@H](O)[C@H]1CC[C@H]2[C@]12C=CCC(C)(C)[C@H]1[C@H](O)[C@@]3(O)OC2', 'log10(IC50)', 0.59),
  ('C=C1C(=O)[C@]23[C@H](O)[C@H]1CC[C@H]2[C@]12C=CC(=O)C(C)(C)[C@H]1[C@H](O)[C@@]3(O)OC2', 'log10(IC50)', 1.01),
  ('C=C1C(=O)[C@@]23C(CC[C@H]1[C@H]2O)[C@@]12CO[C@]3(O)[C@@H](O)C1C(C)(C)Cc1sc(C)nc12 (stereo partly drawn)', 'log10(IC50)', 0.84);

I'd like to know its log10(IC50). The compound in question is `C=C1C(=O)[C@@]23[C@@H]4OC(C)(C)OC25OC[C@]2(C(=O)/C(=C\N(C)C)CC(C)(C)[C@H]2[C@@H]5O)[C@@H]3CC[C@@H]14` 2.22

----------
Tested on: MDA-MB-231
assayOverview: MTT cancer cell proliferation assay, MDA-MB-231
Type: cell-based, human
assayConditions: Homo sapiens, MDA-MB-231, Table 2a; A-ring modified analogues; read-out: IC50 (μM) MDA-MB-231
Please respond with reported IC50 for every item in the list.
Numeric answer plus unit only.

INSERT INTO measurements (chemicalstring, observedresult) VALUES
  ('C=C1C(=O)[C@]23[C@H](O)[C@H]1CC[C@H]2[C@@]12COC3(O)[C@@H](O)[C@@H]1C(C)(C)CC[C@@H]2O', '29.4 µM'),
  ('C=C1C(=O)[C@@]23[C@@H]4OC(C)(C)OC25OC[C@]2(C=CCC(C)(C)[C@H]2[C@@H]5O)[C@@H]3CC[C@@H]14', '3.95 µM');

Let's switch to this compound now.
I'd like to know its IC50. The compound in question is `C=C1C(=O)[C@@]23[C@@H]4OC(C)(C)OC25OC[C@]2(C=C[C@H](O)C(C)(C)[C@H]2[C@@H]5O)[C@@H]3CC[C@@H]14` 10.5 µM

----------
Tested on: MDA-MB-231
assayOverview: MTT cancer cell proliferation assay, MDA-MB-231
Assay type: cell-based, human
assayConditions: Homo sapiens, MDA-MB-231, read-out: Effect on proliferation MDA-MB-231 (ER negative) (IC50)
propertyName: IC50 (µM)
Numbers only, in µM.

I'd like to know its IC50. The compound in question is C=C1C(=O)[C@@]23C(CC[C@H]1[C@H]2O)[C@@]12CO[C@]3(O)[C@@H](O)C1C(C)(C)Cc1sc(C)nc12 (stereo partly shown) 6.9

----------
System: AsPC1
assayOverview: Cancer cell proliferation assay, AsPC1
Format: cell-based
assayConditions: Homo sapiens, ASPC1, read-out: IC50 (μM) AsPC1
propertyName: IC50

Lab note: each compound below needs its IC50 filled in.
1. C=C1C(=O)[C@@]23[C@@H]4OC(C)(C)OC25OC[C@]2(C(=O)/C(=C\N(C)C)CC(C)(C)[C@H]2[C@@H]5O)[C@@H]3CC[C@@H]14
2. C=C1C(=O)[C@@]23C(CC[C@H]1[C@H]2O)[C@@]12CO[C@]3(O)[C@@H](O)C1C(C)(C)Cc1sc(C)nc12 (stereo partly drawn)
3. C=C1C(=O)[C@@]23C(=O)[C@@H](O)[C@@H]4C(C)(C)[C@@H]5OC[C@]4(C(=O)/C5=C\O)[C@@H]2CC[C@@H]1[C@H]3O
4. C=C1C(=O)[C@]23[C@H](O)[C@H]1CC[C@H]2[C@@]12COC3(O)[C@@H](O)[C@@H]1C(C)(C)CC1=C2O[C@]2(CC1)CC(C)(C)[C@H]1[C@H](O)[C@]3(O)OC[C@]1(C2=O)[C@@H]1CC[C@H]2C(=C)C(=O)[C@]13[C@@H]2O

11.8 µM
6.46 µM
> 10 µM
10.2 µM

Lab note: each compound below needs its IC50 filled in.
1. C=C1C(=O)[C@]23[C@H](O)[C@H]1CC[C@H]2[C@]12C=CC(=O)C(C)(C)[C@H]1[C@H](O)[C@@]3(O)OC2
2. C=C1C(=O)[C@]23[C@H](O)[C@H]1CC[C@H]2[C@]12C=CCC(C)(C)[C@H]1[C@H](O)[C@@]3(O)OC2

10.2 µM
1.09 µM

----------
Tested on: Panc-1
assayOverview: Cancer cell proliferation assay, Panc-1
Type: cell-based
assayConditions: Homo sapiens, PANC-1; Table 2b; mean of at least three experiments; read-out: Effect on proliferation Panc-1 (IC50)
Please respond with reported IC50 for every item in the list.
Give bare numbers, in µM.

Check out these entries, answers already filled in.
INSERT INTO results (compound, targetentity, observedresult) VALUES
  ('C=C1C(=O)[C@@]23C(CC[C@H]1[C@H]2O)[C@@]12CO[C@]3(O)[C@@H](O)C1C(C)(C)Cc1sc(NC3CCCCC3)nc12 (stereo partly drawn)', 'Panc-1', 3.7),
  ('C=C1C(=O)[C@]23[C@H](O)[C@H]1CC[C@H]2[C@@]12CO[C@]3(O)[C@@H](O)[C@@H]1C(C)(C)Cc1sc(N)nc12', 'Panc-1', 6.1);

Let's switch to this compound now.
I'd like to know its IC50. The compound in question is `C=C1C(=O)[C@]23[C@H](O)[C@H]1CC[C@H]2[C@@]12CO[C@]3(O)[C@@H](O)[C@@H]1C(C)(C)Cc1sc(NC(C)C)nc12` 3.3

----------
Tested on: MDA-MB-231
assayOverview: MTT cancer cell proliferation assay, MDA-MB-231
Type: cell-based, human
assayConditions: Homo sapiens, MDA-MB-231, Table 1a; breast cancer; read-out: IC50 (μM) MDA-MB-231
Please respond with reported IC50 for every item in the list.
One number for each entry, in µM.

Check out these entries, answers already filled in.
INSERT INTO results (compound, targetentity, propertyname, observedresult) VALUES
  ('C=C1C(=O)[C@]23[C@H](O)[C@H]1CC[C@H]2[C@@]12COC3(O)[C@@H](O)[C@@H]1C(C)(C)CC[C@@H]2O', 'MDA-MB-231', 'IC50', 29.4),
  ('C=C1C(=O)[C@]23[C@H](O)[C@H]1CC[C@H]2[C@@]12CO[C@]3(O)[C@@H](O)[C@@H]1C(C)(C)Cc1sc(NC(C)C)nc12', 'MDA-MB-231', 'IC50', 0.28),
  ('C=C1C(=O)[C@@]23C(CC[C@H]1[C@H]2O)[C@@]12CO[C@]3(O)[C@@H](O)C1C(C)(C)Cc1sc(N3CCCCCC3)nc12 (some centres unmarked)', 'MDA-MB-231', 'IC50', 6.82),
  ('C=C1C(=O)[C@]23[C@H](O)[C@H]1CC[C@H]2[C@@]12CO[C@]3(O)[C@@H](O)[C@@H]1C(C)(C)Cc1sc(N)nc12', 'MDA-MB-231', 'IC50', 3.24);

Lab note: each compound below needs its IC50 filled in.
1. C=C1C(=O)[C@@]23C(CC[C@H]1[C@H]2O)[C@@]12CO[C@]3(O)[C@@H](O)C1C(C)(C)Cc1sc(NC(C)=O)nc12 (some centres unmarked)
2. C=CCNc1nc2c(s1)CC(C)(C)[C@H]1[C@H](O)[C@@]3(O)OC[C@@]21[C@@H]1CC[C@H]2C(=C)C(=O)[C@]13[C@@H]2O
3. C=C1C(=O)[C@]23[C@H](O)[C@H]1CC[C@H]2[C@@]12CO[C@]3(O)[C@@H](O)[C@@H]1C(C)(C)Cc1sc(NC)nc12
4. C=C1C(=O)[C@]23[C@H](O)[C@H]1CC[C@H]2[C@@]12CO[C@]3(O)[C@@H](O)[C@@H]1C(C)(C)Cc1sc(NCCCC)nc12
5. C=C1C(=O)[C@@]23C(CCC1[C@H]2O)[C@@]12COC3(O)[C@@H](O)C1C(C)(C)Cc1sc(NCCN3CCCCC3)nc12 (stereo in doubt)
6. C=C1C(=O)[C@@]23C(CC[C@H]1[C@H]2O)[C@@]12CO[C@]3(O)[C@@H](O)C1C(C)(C)Cc1sc(NC3CCCCC3)nc12 (some centres unmarked)

1. 6.82
2. 0.18
3. 2.06
4. 1.06
5. 1.83
6. 0.83
